target: MMP-9 (Homo sapiens, UniProt P14780)
Sequence (P14780 94-707): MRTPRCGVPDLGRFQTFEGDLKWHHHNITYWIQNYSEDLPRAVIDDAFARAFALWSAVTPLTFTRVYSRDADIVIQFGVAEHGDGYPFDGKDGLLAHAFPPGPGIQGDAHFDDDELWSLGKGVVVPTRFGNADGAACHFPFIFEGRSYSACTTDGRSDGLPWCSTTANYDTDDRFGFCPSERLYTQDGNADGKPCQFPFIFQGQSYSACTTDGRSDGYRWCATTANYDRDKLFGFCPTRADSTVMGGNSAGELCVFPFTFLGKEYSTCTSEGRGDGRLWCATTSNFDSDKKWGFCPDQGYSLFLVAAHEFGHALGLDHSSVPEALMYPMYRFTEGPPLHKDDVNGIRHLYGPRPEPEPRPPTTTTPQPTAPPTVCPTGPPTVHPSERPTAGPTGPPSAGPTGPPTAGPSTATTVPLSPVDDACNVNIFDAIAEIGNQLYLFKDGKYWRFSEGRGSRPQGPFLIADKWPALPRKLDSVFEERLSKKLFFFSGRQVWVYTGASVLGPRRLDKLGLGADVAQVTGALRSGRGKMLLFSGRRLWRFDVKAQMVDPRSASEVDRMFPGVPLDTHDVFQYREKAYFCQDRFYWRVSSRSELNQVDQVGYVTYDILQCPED
attribute.measured: Ki (µM)
API: value field is a number in µM; no unit string.

Given item NCCS [cysteamine, Cysteamine (HSCH2CH2NH2)] , the value recorded as its Ki is 530
